Biological target: SARM1 (Homo sapiens)
Construct: AviTag […]; made in house; host or cells: NRK1-HEK293T cells, transiently transfected; the clarified sonicated lysate was used without purification
Sequence (Q6SZW1 with tags, fused parts or gaps): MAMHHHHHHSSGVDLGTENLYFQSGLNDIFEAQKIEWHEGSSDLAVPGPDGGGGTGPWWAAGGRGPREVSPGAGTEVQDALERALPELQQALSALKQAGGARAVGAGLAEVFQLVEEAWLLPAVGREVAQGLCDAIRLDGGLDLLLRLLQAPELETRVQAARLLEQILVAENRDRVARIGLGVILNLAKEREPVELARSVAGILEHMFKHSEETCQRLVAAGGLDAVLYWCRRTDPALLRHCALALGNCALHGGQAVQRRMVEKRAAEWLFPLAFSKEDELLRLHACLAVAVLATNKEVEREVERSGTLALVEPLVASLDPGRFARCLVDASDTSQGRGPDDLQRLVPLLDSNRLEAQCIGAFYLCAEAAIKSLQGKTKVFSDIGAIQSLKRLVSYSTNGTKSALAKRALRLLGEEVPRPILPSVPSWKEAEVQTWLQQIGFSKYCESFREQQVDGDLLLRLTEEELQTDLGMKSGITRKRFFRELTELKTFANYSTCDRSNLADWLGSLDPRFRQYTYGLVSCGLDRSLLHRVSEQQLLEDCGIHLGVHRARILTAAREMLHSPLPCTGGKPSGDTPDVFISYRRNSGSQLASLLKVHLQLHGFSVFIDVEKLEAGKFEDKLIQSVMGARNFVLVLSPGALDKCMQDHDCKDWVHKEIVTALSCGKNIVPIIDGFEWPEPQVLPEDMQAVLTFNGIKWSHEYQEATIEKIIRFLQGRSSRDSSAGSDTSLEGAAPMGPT
Test: ARM-SAM-TIR SARM1 IC50 assay (NADase activity, NAD+ cleavage)
Format: biochemical
Settings: ARM-SAM-TIR lysate 5 μg/mL from NRK1-HEK293T cells; 2 h pre-incubation with compound, 5 μM NAD+, 2 hr room temperature; NAD+ and ADPR by RapidFire mass spectrometry; read-out: SARM1 IC50
pIC50: −log10 of the molar value.
pIC50 values, listed per item
ASSAY_READOUT: pIC50

>>> df
                                    compound  measured_value
 0  N#Cc1cc(N2CCC[C@@H]2C(=O)N2CCCC2)nc2ccc(Br)cc12          > 5.30
 1                  N#Cc1cc(N)nc2ccc(Cl)cc12    4.52 to 4.82
 2     N#Cc1cc(N2CC[C@H](N)C2)nc2ccc(Cl)cc12          > 5.30
 3  N#Cc1cc(N2CC[C@@H](C(=O)N3CCCC3)C2)nc2ccc(Br)cc12          > 5.30
 4  N#Cc1cc(N2CCCC(n3cccn3)C2)nc2ccc(Br)cc12 (centres unmarked)          > 5.30
 5             N#Cc1cc(NC2CC2)nc2ccc(Cl)cc12          < 4.52
 6               CN(C)c1cc(C#N)c2cc(F)ccc2n1    4.82 to 5.30
 7  CN(CC1CC1)C(=O)[C@H]1CCCN(c2cc(C#N)c3cc(Br)ccc3n2)C1          > 5.30
 8  N#Cc1cc(N2CCC[C@@H](C(=O)NCc3cnccn3)C2)nc2ccc(Br)cc12          > 5.30
 9  N#Cc1cc(N2CCC[C@H](C(=O)N3CCCC3)C2)nc2ccc(Br)cc12          > 5.30
10       CCN1CCN(c2cc(C#N)c3cc(Cl)ccc3n2)CC1          < 4.52
11  Cc1cncnc1C(=O)N[C@H]1CCCN(c2cc(C#N)c3cc(Br)ccc3n2)C1          > 5.30
12         N#Cc1cc(N2CCC(N)CC2)nc2ccc(F)cc12          < 4.52
13  CO[C@@H]1CCCN(c2cc(C#N)c3cc(Cl)ccc3n2)C1          > 5.30
14  Cn1cc(C(=O)N[C@H]2CCCN(c3cc(C#N)c4cc(Br)ccc4n3)C2)cn1          > 5.30
15     N#Cc1cc(N2CCC(NCCO)CC2)nc2ccc(Cl)cc12    4.82 to 5.30
16    CO[C@H]1CCN(c2cc(C#N)c3cc(Cl)ccc3n2)C1          > 5.30
17   C[C@@H]1CCCN(c2cc(C#N)c3cc(Cl)ccc3n2)C1          > 5.30
18  C[C@@H]1CCC[C@H](C)N1c1cc(C#N)c2cc(Br)ccc2n1          > 5.30
19            N#Cc1cc(N2CCCCC2)nc2ccc(F)cc12          > 5.30

###

Molecular target: SARM1 (Homo sapiens)
Construct: AviTag […]; made in house; host or cells: NRK1-HEK293T cells, transiently transfected; the clarified sonicated lysate was used without purification
Test: ARM-SAM-TIR SARM1 IC50 assay (NADase activity, NAD+ cleavage)
Type: biochemical
Conditions: ARM-SAM-TIR lysate 5 μg/mL from NRK1-HEK293T cells; 2 h pre-incubation with compound, 5 μM NAD+, 2 hr room temperature; NAD+ and ADPR by RapidFire mass spectrometry; read-out: SARM1 IC50
ASSAY_READOUT: IC50

>>> df
                                    compound  assay_readout  measured_value
 0  CN(Cc1ccccc1)C(=O)C1CCN(c2cc(C#N)c3cc(Br)ccc3n2)CC1 [Example 125]           IC50          < 5 µM
 1  CN(C)c1cc(C#N)c2ccc(Cl)cc2n1 [Example 27]           IC50          < 5 µM
 2  COCCN(C)C(=O)[C@H]1CCCN(c2cc(C#N)c3cc(Br)ccc3n2)C1 [Example 112]           IC50          < 5 µM
 3  N#Cc1cc(N2CCC(C(=O)N3CCOCC3)CC2)nc2ccc(Br)cc12 [Example 104]           IC50          < 5 µM
 4  N#Cc1cc(N2CCC(NS(N)(=O)=O)CC2)nc2ccc(Br)cc12 [Example 132]           IC50          < 5 µM
 5  CS(=O)(=O)N[C@H]1CCCN(c2cc(C#N)c3cc(Br)ccc3n2)C1 [Example 110]           IC50          < 5 µM
 6  CC(=O)N[C@]1(C)CCCN(c2cc(C#N)c3cc(Br)ccc3n2)C1 [Example 121]           IC50          < 5 µM
 7  N#Cc1cc(N2CCC[C@H](NC(=O)N3CCS(=O)(=O)CC3)C2)nc2ccc(Br)cc12 [Example 138]           IC50          < 5 µM
 8  N#Cc1cc(N2CCN(c3ncc[nH]3)CC2)nc2ccc(Cl)cc12 [Example 43]           IC50     15 to 30 µM
 9  N#Cc1cc(N2CCCC(c3ncccn3)C2)nc2ccc(Br)cc12 (stereo not shown) [Example 152]           IC50          < 5 µM
10  CN(Cc1ccccc1)C(=O)[C@H]1CCCN(c2cc(C#N)c3cc(Br)ccc3n2)C1 [Example 116]           IC50          < 5 µM
11  COCCN(C)C(=O)C1CCN(c2cc(C#N)c3cc(Br)ccc3n2)CC1 [Example 123]           IC50          < 5 µM
12  CN1CCN(c2cc(C#N)c3cc(Cl)ccc3n2)CC1 [Example 52]           IC50         > 30 µM
13  CO[C@H]1CCCN(c2cc(C#N)c3cc(Cl)ccc3n2)C1 [Example 61]           IC50          < 5 µM
14  CC(O)CNc1cc(C#N)c2cc(Cl)ccc2n1 (stereo not shown) [Example 38]           IC50     15 to 30 µM
15  N#Cc1cc(N2CCC(NCc3ccccc3)CC2)nc2ccc(Br)cc12 [Example 113]           IC50          < 5 µM
16  N#Cc1cc(N2CC(CO)C2)nc2ccc(Cl)cc12 [Example 34]           IC50      5 to 15 µM
17  CN(C)c1cc(C#N)c2cc(Br)ccc2n1 [Example 22]           IC50          < 5 µM
18  Cc1n[nH]cc1C(=O)N[C@H]1CCCN(c2cc(C#N)c3cc(Br)ccc3n2)C1 [Example 129]           IC50          < 5 µM
19  N#Cc1cc(N2CCC[C@H](C(=O)N3CCOCC3)C2)nc2ccc(Br)cc12 [Example 101]           IC50          < 5 µM
20  N#Cc1cc(N2CCCCC2C2CC2)nc2ccc(Cl)cc12 (stereo not shown) [Example 98]           IC50          < 5 µM
21  N#Cc1cc(N2CCCCC2)nc2cc(Cl)ccc12 [Example 26]           IC50          < 5 µM
